System: Sporothrix schenckii
Experiment: Antifungal activity against Sporothrix schenckii P3287 isolate from cutaneous-lymphatic sporotrichosis patient after 72 hrs by modified NCCLS M38-A method
Type: functional
Kindly state MIC for each of the entries shown.
Express your answer in µg/mL, writing the number without its unit.

Problem: Consider the compound shown here: CCC(C)n1ncn(-c2ccc(N3CCN(c4ccc(OCC5COC(Cn6cncn6)(c6ccc(Cl)cc6Cl)O5)cc4)CC3)cc2)c1=O (centres undefined) [ITRACONAZOLE] What is its recorded MIC?
Result: 0.25

Problem: Consider the compound shown here: C[C@@H](c1ncncc1F)[C@](O)(Cn1cncn1)c1ccc(F)cc1F [VORICONAZOLE] What is its recorded MIC?
Result: 16
